Just for reference, patent US6700013B2 is where these values come from.

# Test system: pig tracheal smooth muscles
# experimental_details: Dilating action on contraction of tracheal smooth muscles (high K+ contraction, Magnus tube)
# assay_setup: Sus scrofa, 2 h; K+ contraction (72.7 mM); test substance final concentration 10 μM; two hours after addition; tension before addition = 100%; read-out: Relative Contraction Force (%)
measurement_type: activity at 10 µM

compound=CSc1ccc2c(c1)CC(=O)c1c(O)cc(O)cc1S2 target_system="pig tracheal smooth muscles" test_value=0%
compound=O=C1Cc2ccc(-c3ccco3)cc2Sc2cc(O)cc(O)c21 target_system="pig tracheal smooth muscles" test_value=22.4%
compound="CC1C(=O)c2cc(O)c(O)cc2Sc2ccccc21 (centres unmarked)" target_system="pig tracheal smooth muscles" test_value=7.5%
compound="Oc1cc(O)c2c(c1)Sc1ccccc1CC2 [Comparative Example, reference compound]" target_system="pig tracheal smooth muscles" test_value=54.5%
compound=Oc1cc(O)c2c(c1)Sc1cc(-c3ccco3)ccc1CC2 target_system="pig tracheal smooth muscles" test_value=30.3%

----------
Measured melting point, listed per entry for reference.
measurement_type: melting point

compound="Nc1cccc(-c2ccc3c(c2)CC(=O)c2c(O)cc(O)cc2O3)c1 [Example 59]" measurement_type="melting point" test_value="> 300 °C (dec.)"
compound="O=C1Cc2ccc(-c3ccco3)cc2Sc2cc(O)cc(O)c21 [Example 82]" measurement_type="melting point" test_value="234.9 to 238.8 °C"
compound="Oc1cc(O)c2c(c1)Sc1cc(-c3cccs3)ccc1CC2 [Example 123]" measurement_type="melting point" test_value="196.1 to 198.5 °C"
compound="COc1cc(O)c2c(c1)Sc1ccc(Br)cc1CC2=O [Example 14]" measurement_type="melting point" test_value="187.5 °C"
compound="Cc1ccc(-c2ccc3c(c2)Sc2cc(O)cc(O)c2C(=O)C3)cc1 [Example 86]" measurement_type="melting point" test_value="228.4 to 235.2 °C"

----------
measurement_type: melting point

compound="Oc1cc(O)c2c(c1)Sc1ccc(-c3ccco3)cc1CC2 [Example 127]" test_value="213.7 to 214.7 °C"
compound="O=C1Cc2cc(-c3ccco3)ccc2Oc2cc(O)cc(O)c21 [Example 57]" test_value="171 to 172.7 °C"
compound="CC1=Cc2cc(O)c(O)cc2Sc2ccccc21 [Example 145]" test_value="68.2 to 70.1 °C"
compound="O=C1Cc2cc(-c3ccc(O)c(O)c3)ccc2Oc2cc(O)cc(O)c21 [Example 93]" test_value="> 250 °C"
compound="O=C1Cc2ccc(-c3cccc(Cl)c3)cc2Oc2cc(O)cc(O)c21 [Example 69]" test_value="199.9 to 201.4 °C"
compound="O=C1Cc2ccc(-c3ccco3)cc2Oc2cc(O)cc(O)c21 [Example 70]" test_value="249.6 to 250.8 °C"
compound="CCc1ccc2c(c1)CC(=O)c1c(O)cc(O)cc1S2 [Example 48]" test_value="179.1 to 180.1 °C"
compound="Oc1cc(O)c2c(c1)Sc1cccc(Cl)c1CC2 [Example 27]" test_value="127.3 to 130.7 °C"
compound="O=C1Cc2cc(-c3ccco3)ccc2Sc2cc(O)cc(O)c21 [Example 84]" test_value="243.5 to 248.4 °C (dec.)"
compound="CCC(=O)c1ccc2c(c1)CCc1c(O)cc(O)cc1O2 [Example 10]" test_value="159 to 160.3 °C"

----------
Measured melting point, listed per entry for reference.
measurement_type: melting point

compound=CCCc1ccc2c(c1)CC(=O)c1c(O)cc(O)cc1O2 measurement_type="melting point" test_value="121 to 123 °C"
compound=O=C1Cc2cc(-c3cc4ccccc4o3)ccc2Oc2cc(O)cc(O)c21 measurement_type="melting point" test_value="268.4 to 268.5 °C"
compound=Oc1cc(O)c2c(c1)Oc1ccc(-c3ccccc3)cc1CC2 measurement_type="melting point" test_value="176.7 to 179.2 °C"
compound="CCC1C(=O)c2cc(O)c(O)cc2Sc2cc(-c3cccs3)ccc21 (stereo not drawn)" measurement_type="melting point" test_value="270.3 to 271.9 °C"
compound=O=C1Cc2ccc(-c3cccs3)cc2Sc2cc(O)cc(O)c21 measurement_type="melting point" test_value="214.3 to 215.3 °C"
compound=Oc1cc2c(c(O)c1O)CCc1cc(-c3ccccc3)ccc1O2 measurement_type="melting point" test_value="175.1 to 178.3 °C"
compound=O=C(c1ccc2c(c1)CCc1c(O)cc(O)cc1S2)C1CC1 measurement_type="melting point" test_value="142.2 to 143.5 °C"
compound=O=C1Cc2ccc(C#Cc3ccccc3)cc2Oc2cc(O)cc(O)c21 measurement_type="melting point" test_value="189.4 to 191.1 °C"
compound=O=C1Cc2ccc(-c3ccc(OC(F)(F)F)cc3)cc2Oc2cc(O)cc(O)c21 measurement_type="melting point" test_value="197.7 to 200.8 °C"

----------
measurement_type: melting point

compound=O=C1Cc2ccc(-c3cccc(C(F)(F)F)c3)cc2Sc2cc(O)cc(O)c21 measurement_type="melting point" test_value="225.3 to 226.5 °C"
compound=Oc1cc(O)c2c(c1)Oc1cc(-c3cccc(C(F)(F)F)c3)ccc1CC2 measurement_type="melting point" test_value="150.2 to 152.6 °C"
compound=O=C1Cc2cc(-c3ccccc3)ccc2Sc2cc(O)cc(O)c21 measurement_type="melting point" test_value="190.8 to 195.3 °C"
compound="CCC1C(=O)c2cc(O)c(O)cc2Sc2cc(-c3cccc(N)c3)ccc21 (stereo not drawn)" measurement_type="melting point" test_value="245.5 to 246.4 °C"
compound=Oc1cc(O)c2c(c1)Oc1ccc(CCc3ccccc3)cc1CC2 measurement_type="melting point" test_value="151.8 to 152.7 °C"
compound=CCCCCCc1ccc2c(c1)CCc1c(O)cc(O)cc1O2 measurement_type="melting point" test_value="135.6 to 137.6 °C"
compound=CSc1ccc2c(c1)Sc1cc(O)cc(O)c1C(=O)C2 measurement_type="melting point" test_value="182.3 to 184.4 °C"
compound=O=C1Cc2cc(Br)ccc2Sc2cc(O)cc(O)c21 measurement_type="melting point" test_value="236.4 to 237.3 °C"
compound=Cc1ccc(-c2ccc3c(c2)CC(=O)c2c(O)cc(O)cc2O3)cc1 measurement_type="melting point" test_value="174 to 175 °C"
compound=Oc1cc(O)c2c(c1)Sc1ccc(Cl)cc1CC2 measurement_type="melting point" test_value="181.1 to 184.9 °C"
compound="CCC1C(=O)c2cc(O)c(O)cc2Sc2cc(Br)ccc21 (stereo not drawn)" measurement_type="melting point" test_value="227.2 to 229.9 °C"
compound=O=C1Cc2c(Cl)cccc2Sc2cc(O)cc(O)c21 measurement_type="melting point" test_value="> 200 °C (dec.)"
compound=Oc1cc(O)c2c(c1)Oc1cc(-c3ccccc3)ccc1CC2 measurement_type="melting point" test_value="179.6 to 180.4 °C"
compound=O=C1Cc2ccc(CCc3ccccc3)cc2Oc2cc(O)cc(O)c21 measurement_type="melting point" test_value="125.9 to 127.7 °C"
compound=O=C1Cc2ccc(-c3ccc(O)c(O)c3)cc2Oc2cc(O)cc(O)c21 measurement_type="melting point" test_value="229.8 to 231.6 °C"
compound="CCC1C(=O)c2cc(O)c(O)cc2Sc2ccc(SC)cc21 (stereo not drawn)" measurement_type="melting point" test_value="199.6 to 200.5 °C"
compound=O=C(c1ccc2c(c1)CCc1c(O)cc(O)cc1S2)C1CCC1 measurement_type="melting point" test_value="141.2 to 141.7 °C"
compound=CCCC(=O)c1ccc2c(c1)CCc1c(O)cc(O)cc1S2 measurement_type="melting point" test_value="151.8 to 152.8 °C"
compound=CON=C(C)c1ccc2c(c1)CCc1c(O)cc(O)cc1S2 measurement_type="melting point" test_value="176.7 to 177.6 °C"
compound=N#Cc1ccc2c(c1)CCc1c(O)cc(O)cc1S2 measurement_type="melting point" test_value="237.4 to 238.6 °C"
compound=O=C1Cc2cc(-c3ccccc3)ccc2Oc2cc(O)cc(O)c21 measurement_type="melting point" test_value="170.3 to 172 °C"
compound=CCC1(CC)C(=O)c2cc(O)c(O)cc2Sc2ccccc21 measurement_type="melting point" test_value="238 to 244.1 °C"
compound="CCC1C(=O)c2cc(O)c(O)cc2Sc2cc(-c3ccccc3)ccc21 (stereo not drawn)" measurement_type="melting point" test_value="274.3 to 276.1 °C"
compound="CCC1C(=O)c2cc(O)c(O)cc2Sc2ccc(-c3ccccc3)cc21 (stereo not drawn)" measurement_type="melting point" test_value="225.7 to 227.3 °C"

----------
Measured melting point, listed per entry for reference.
measurement_type: melting point

smiles_str=Cc1ccc(-c2ccc3c(c2)Oc2cc(O)cc(O)c2CC3)cc1 measurement_type="melting point" test_value="195.1 to 197.1 °C"
smiles_str=Cc1ccc(-c2ccc3c(c2)Oc2cc(O)cc(O)c2C(=O)C3)cc1 measurement_type="melting point" test_value="208.8 to 210.2 °C"
smiles_str=CSc1ccc2c(c1)C=Cc1c(O)cc(O)cc1S2 measurement_type="melting point" test_value="182.9 to 184.4 °C"
smiles_str=O=C1Cc2ccc(Br)cc2Sc2cc(O)c(O)cc21 measurement_type="melting point" test_value="> 250 °C"
smiles_str=CC(=O)c1ccc(-c2ccc3c(c2)CC(=O)c2c(O)cc(O)cc2O3)cc1 measurement_type="melting point" test_value="274 to 279 °C (dec.)"
